Reference source for all entries: the supplement of paper PMC10567573

B1: INTS3 (parent)
chain: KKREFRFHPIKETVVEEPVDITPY

Variants of: B1
Assay: protein stability index of a GFP-peptide fusion (GPS, HEK-293T) (PSI 1-6); higher = more stable;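 further: lentivirally expressed fusions sorted by FACS into six bins by GFP to DsRed ratio, PSI derived from sequencing read proportions per bin multiplied by bin number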
Conditions: c terminus: a fixed tail appended
Response key: 1 means protein stability index >= 2; 0 means protein stability index < 2.

Recorded results for 4 variants are shown here.
V19H | 0
T13I | 0
D20P | 0
T13P | 0

**Q:** Check the entry P18S : does protein stability index equal or exceed 2?
**A:** 0

**Q:** Check the entry K2Y : does protein stability index equal or exceed 2?
**A:** 0

**Q:** Check the entry R3D : does protein stability index equal or exceed 2?
**A:** 1
